- Experimental system: insulin (bovine pancreas) (Bos taurus, UniProt P01317;P01317 25-54;85-105)
- Sequence (P01317 25-54, chain 1 of 2): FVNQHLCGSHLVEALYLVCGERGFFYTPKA
- Sequence (P01317 85-105, chain 2 of 2): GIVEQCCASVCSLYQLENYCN
- Measurement notes: electrochemical aptamer-based sensor
Metric name: Kd (nM)
Return type: number; implicit unit nM.

Req: Give Kd for the following binder: AAAAGGTGGTGGGGGGGGTTGGTAGGGTGTCTTCT (structured_DNA, 5' thiol-C6 (immobilised on gold); 3' methylene blue) [Insulin-End (IGA3)]
Resp: 240
